study system: HLA A2402 (human)
assay method text: 125I-probe competition, purified HLA
The entries below are paired with their reported pIC50.
By convention, pIC50 is the negative base-10 log of a molar concentration.

Example entries begin here.
YYITETGIW (modifications not checked) [HPV45.E2.144]: 8.07
VYGTTLEKL (modifications not checked) [HPV31.E6.83]: 7.59
FYSKVSEFRW (modifications not checked) [HPV31.E6.69]: 8.35
VVFIYIPLF (modifications not checked) [HPV31.E5.64]: 6.56
MYVCCHVPL (modifications not checked) [HPV18.E5.14]: 7.82

input: State the recorded pIC50 for this entry: VFTFPHAFPF (modifications not checked) [HPV45.E1.578]
output: 7.04

input: # lookup: pIC50 of SYFGMSFIHF (modifications not checked) [HPV18/45.E1.491]
output: 7.76

input: Need pIC50, item VFTFPNPFPF (modifications not checked) [HPV31.E1.565]
output: 7.77

input: Look up pIC50 for this binder: PYLHSRLVVF (modifications not checked) [HPV31.E1.557]
output: 7.41

input: Which pIC50 value is on record for VYDFAFRDLCI (modifications not checked) [HPV16.E6.49] ?
output: 7.66
